All values here come from paper PMC4501006.

In this section, each of the compounds is paired with its reported Percentage of Parent tracer, Brain.
- PROCEDURE DETAILS: In vivo metabolism (biostability), HPLC analysis of organ samples
- CONDITION LABEL: ICR mice, i.v., post-injection time 2 min
READOUT NAME: Percentage of Parent tracer, Brain

>>> measured_value("FCCOc1ccc(COc2ccc([125I])cc2)cc1 [[^125I]12a]")
"92.1%"
>>> measured_value("FCCOc1ccc(OCc2ccc([125I])cc2)cc1 [[^125I]7a]")
"95.9%"
>>> measured_value("[18F]CCOc1ccc(COc2ccc(I)cc2)cc1 [[^18F]12a]")
"87.9%"
>>> measured_value("[18F]CCOc1ccc(OCc2ccc(I)cc2)cc1 [[^18F]7a]")
"84.7%"

----------
Quick list: Biodistribution of radioactivity, spleen per entry.
- PROCEDURE DETAILS: In vivo biodistribution in normal ICR mice
- CONDITION LABEL: i.v., 2 min
READOUT NAME: Biodistribution of radioactivity, spleen

>>> measured_value("FCCOc1ccc(OCc2ccc([125I])cc2)cc1 [[^125I]7a]")
"3.86 ± 0.21 % injected dose per gram"
>>> measured_value("[18F]CCOc1ccc(OCc2ccc(I)cc2)cc1 [[^18F]7a]")
"5.92 ± 1.30 % injected dose per gram"
>>> measured_value("[18F]CCOc1ccc(COc2ccc(I)cc2)cc1 [[^18F]12a]")
"4.98 ± 0.32 % injected dose per gram"
>>> measured_value("FCCOc1ccc(COc2ccc([125I])cc2)cc1 [[^125I]12a]")
"2.85 ± 0.30 % injected dose per gram"

----------
- PROCEDURE DETAILS: In vivo biodistribution in normal ICR mice
- CONDITION LABEL: i.v., 30 min
Listing of entries alongside the reported Biodistribution of radioactivity, heart.
READOUT NAME: Biodistribution of radioactivity, heart

>>> measured_value("FCCOc1ccc(OCc2ccc([125I])cc2)cc1 [[^125I]7a]")
"1.65 ± 0.43 % injected dose per gram"
>>> measured_value("[18F]CCOc1ccc(COc2ccc(I)cc2)cc1 [[^18F]12a]")
"5.41 ± 0.36 % injected dose per gram"
>>> measured_value("[18F]CCOc1ccc(OCc2ccc(I)cc2)cc1 [[^18F]7a]")
"4.20 ± 0.52 % injected dose per gram"
>>> measured_value("FCCOc1ccc(COc2ccc([125I])cc2)cc1 [[^125I]12a]")
"1.67 ± 0.09 % injected dose per gram"

----------
- PROCEDURE DETAILS: In vivo metabolism (biostability), HPLC analysis of organ samples
- CONDITION LABEL: ICR mice, i.v., post-injection time 10 min
Recorded Percentage of Parent tracer, Brain by entry
READOUT NAME: Percentage of Parent tracer, Brain (%)

>>> measured_value("FCCOc1ccc(OCc2ccc([125I])cc2)cc1 [[^125I]7a]")
86.0
>>> measured_value("[18F]CCOc1ccc(COc2ccc(I)cc2)cc1 [[^18F]12a]")
65.7
>>> measured_value("FCCOc1ccc(COc2ccc([125I])cc2)cc1 [[^125I]12a]")
82.1
>>> measured_value("[18F]CCOc1ccc(OCc2ccc(I)cc2)cc1 [[^18F]7a]")
69.8

----------
- TARGET DESC: Aβ42 aggregates (Homo sapiens, UniProt P05067)
- Sequence (P05067 672-713 limits assumed): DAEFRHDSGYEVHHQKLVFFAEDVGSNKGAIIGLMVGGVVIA
- PROCEDURE DETAILS: Competition binding assay using [125I]4 as radio-ligand
- CONDITION LABEL: inhibition of [125I]4 binding to Aβ42 aggregates
READOUT NAME: Ki (µM)

>>> measured_value("FCCOc1ccc(OCc2ccc(I)cc2)cc1")
0.0195
>>> measured_value("FCCOc1ccc(COc2ccc(I)cc2)cc1 [12a]")
0.0239

----------
- PROCEDURE DETAILS: In vivo biodistribution in normal ICR mice
- CONDITION LABEL: i.v., 30 min
READOUT NAME: Biodistribution of radioactivity, pancreas (% injected dose per gram)

>>> measured_value("FCCOc1ccc(COc2ccc([125I])cc2)cc1 [[^125I]12a]")
1.75
>>> measured_value("[18F]CCOc1ccc(COc2ccc(I)cc2)cc1 [[^18F]12a]")
4.55
>>> measured_value("[18F]CCOc1ccc(OCc2ccc(I)cc2)cc1 [[^18F]7a]")
3.62
>>> measured_value("FCCOc1ccc(OCc2ccc([125I])cc2)cc1 [[^125I]7a]")
2.61

----------
Measured Biodistribution of radioactivity, intestine of individual entries
- PROCEDURE DETAILS: In vivo biodistribution in normal ICR mice
- CONDITION LABEL: i.v., 60 min
READOUT NAME: Biodistribution of radioactivity, intestine (% injected dose per organ)

>>> measured_value("[18F]CCOc1ccc(OCc2ccc(I)cc2)cc1 [[^18F]7a]")
8.13
>>> measured_value("FCCOc1ccc(OCc2ccc([125I])cc2)cc1 [[^125I]7a]")
20.21
>>> measured_value("FCCOc1ccc(COc2ccc([125I])cc2)cc1 [[^125I]12a]")
18.84
>>> measured_value("[18F]CCOc1ccc(COc2ccc(I)cc2)cc1 [[^18F]12a]")
8.50

----------
- PROCEDURE DETAILS: In vivo biodistribution in normal ICR mice
- CONDITION LABEL: i.v., 2 min
READOUT NAME: Biodistribution of radioactivity, lung (% injected dose per gram)

>>> measured_value("[18F]CCOc1ccc(COc2ccc(I)cc2)cc1 [[^18F]12a]")
9.17
>>> measured_value("FCCOc1ccc(OCc2ccc([125I])cc2)cc1 [[^125I]7a]")
10.78
>>> measured_value("[18F]CCOc1ccc(OCc2ccc(I)cc2)cc1 [[^18F]7a]")
9.34
>>> measured_value("FCCOc1ccc(COc2ccc([125I])cc2)cc1 [[^125I]12a]")
10.30

----------
- PROCEDURE DETAILS: In vivo metabolism (biostability), HPLC analysis of organ samples
- CONDITION LABEL: ICR mice, i.v., post-injection time 30 min
Reported values of Percentage of Parent tracer, Liver for individual entries
READOUT NAME: Percentage of Parent tracer, Liver (%)

>>> measured_value("FCCOc1ccc(COc2ccc([125I])cc2)cc1 [[^125I]12a]")
6.3
>>> measured_value("FCCOc1ccc(OCc2ccc([125I])cc2)cc1 [[^125I]7a]")
8.8
>>> measured_value("[18F]CCOc1ccc(COc2ccc(I)cc2)cc1 [[^18F]12a]")
82.2
>>> measured_value("[18F]CCOc1ccc(OCc2ccc(I)cc2)cc1 [[^18F]7a]")
48.7

----------
Biodistribution of radioactivity, muscle listing for selected compounds.
- PROCEDURE DETAILS: In vivo biodistribution in normal ICR mice
- CONDITION LABEL: i.v., 2 min
READOUT NAME: Biodistribution of radioactivity, muscle (% injected dose per gram)

>>> measured_value("FCCOc1ccc(OCc2ccc([125I])cc2)cc1 [[^125I]7a]")
3.72
>>> measured_value("[18F]CCOc1ccc(COc2ccc(I)cc2)cc1 [[^18F]12a]")
5.38
>>> measured_value("[18F]CCOc1ccc(OCc2ccc(I)cc2)cc1 [[^18F]7a]")
5.03
>>> measured_value("FCCOc1ccc(COc2ccc([125I])cc2)cc1 [[^125I]12a]")
3.47

----------
- PROCEDURE DETAILS: In vivo biodistribution in normal ICR mice
- CONDITION LABEL: i.v., 10 min
READOUT NAME: Biodistribution of radioactivity, pancreas (% injected dose per gram)

>>> measured_value("[18F]CCOc1ccc(OCc2ccc(I)cc2)cc1 [[^18F]7a]")
3.96
>>> measured_value("FCCOc1ccc(OCc2ccc([125I])cc2)cc1 [[^125I]7a]")
2.07
>>> measured_value("FCCOc1ccc(COc2ccc([125I])cc2)cc1 [[^125I]12a]")
2.44
>>> measured_value("[18F]CCOc1ccc(COc2ccc(I)cc2)cc1 [[^18F]12a]")
3.96

----------
- PROCEDURE DETAILS: In vivo biodistribution in normal ICR mice
- CONDITION LABEL: i.v., 2 min
Items are presented alongside their recorded Biodistribution of radioactivity, intestine.
READOUT NAME: Biodistribution of radioactivity, intestine (% injected dose per organ)

>>> measured_value("[18F]CCOc1ccc(OCc2ccc(I)cc2)cc1 [[^18F]7a]")
6.38
>>> measured_value("FCCOc1ccc(OCc2ccc([125I])cc2)cc1 [[^125I]7a]")
6.46
>>> measured_value("FCCOc1ccc(COc2ccc([125I])cc2)cc1 [[^125I]12a]")
4.81
>>> measured_value("[18F]CCOc1ccc(COc2ccc(I)cc2)cc1 [[^18F]12a]")
7.72
